// data source = patent US20250339504A1

# Test System: T1, FOXM1 peptide on HLA-A*24:02 (human)
# T1 peptide: IYTWIEDHF
# Experiment: multimer staining

Binder	binding result
F5 (TCR, V domains shown) Valpha: KDQVFQPSTVASSEGAVVEIFCNHSVSNAYNFFWYLHFPGCAPRLLVKGSKPSQQGRYNMTYERFSSSLLILQVREADAAVYYCAVNQAGTALIFGKGTTLSVSS Vbeta: DTEVTQTPKHLVMGMTNKKSLKCEQHMGHRAMYWYKQKAKKPPELMFVYSYEKLSINESVPSRFSPECPNSSLLNLHLHALQPEDSALYLCASSQERTSGRSADTQYFGPGTRLTVL	recognises
②1E7 (TCR, V domains shown) Valpha: AQSVSQHNHHVILSEAASLELGCNYSYGGTVNLFWYVQYPGQHLQLLLKYFSGDPLVKGIKGFEAEFIKSKFSFNLRKPSVQWSDTAEYFCAVRHGGTGTASKLTFGTGTRLQVTL Vbeta: GAVVSQHPSWVICKSGTSVKIECRSLDFQATTMFWYRQFPKQSLMLMATSNEGSKATYEQGVEKDKFLINHASLTLSTLTVTSAHPEDSSFYICSARALGGYTFGSGTRLTVV	recognises
1F5 (TCR, V domains shown) Valpha: EDQVTQSPEALRLQEGESSSLNCSYTVSGLRGLFWYRQDPGKGPEFLFTLYSAGEEKEKERLKATLTKKESFLHITAPKPEDSATYLCAASNSGGSNYKLTFGKGTLLTVNP Vbeta: DSGVTQTPKHLITATGQRVTLRCSPRSGDLSVYWYQQSLDQGLQFLIQYYNGEERAKGNILERFSAQQFPDLHSELNLSSLELGDSALYFCASSVDGKGTQYFGPGTRLLVL	recognises
